Origin of measurements: paper PMC10668032

Study target: SIX1 homeodomain (reference allele) (human, UniProt Q15475 108-198)
Sequence: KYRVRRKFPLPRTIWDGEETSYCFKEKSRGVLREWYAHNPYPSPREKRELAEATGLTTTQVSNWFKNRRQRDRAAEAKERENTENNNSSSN
Method: universal protein binding microarray; Universal all-10-mer PBM (8x60K, AMADID 030236), 300 nM GST-tagged protein, Alexa Fluor 488 anti-GST; buffer, salt, pH and temperature not stated (as in Berger); high values mean tight binding
Settings: protein: ivt; tags: N-terminal GST; dsDNA, one strand shown
In all, about 33,000 sequences were measured (“e-score”: median about -0.053, highest 2% from about 0.38 on). The entries come from a sample that favours the highest values as a whole.
Reported endpoint: binding signal (E-score)
Quick note: give the figure in E-score, leave out the unit.

Returns the measured binding signal for the input sequence. Input: GATCAGCC
0.293

Bench note: what binding signal did GGGACACC show?
0.341

Consider the sequence shown here: AGGGTATG What is its recorded binding signal?
0.28

What binding signal value was documented for this sequence, CGGATTTA ?
0.196

# input sequence: CGATACAC ; wanted: its binding signal
0.418

# get_value(readout='binding signal', item= AGGTGATC )
0.359

Name the reported binding signal value associated with the sequence AGCGGTAT
0.343

What value of binding signal has been reported for the following sequence? CGGTGAGA
0.253

# query: binding signal of entry TACACCCA
0.341

Item CGATCTGA has what recorded binding signal?
0.302

For the sequence shown here, CGCTATCC , give the reported binding signal.
0.339

Item CGTAATAC has what recorded binding signal?
0.256

Fill in: binding signal of AGATATAT is ___
0.337

Value lookup for binding signal; key = TGGTATAA
0.287

Give the measured binding signal of AGATACAG .
0.246

Give its binding signal value. Item: ATCAGGAA
0.165

Please give the measured binding signal for this sequence: GGATATAA
0.352

Suppose we examine the sequence AGGTATGA ; what binding signal value has been reported?
0.242

Reported binding signal for ACGACACC : what is it?
0.432

Given the sequence CGATATAA , what is its reported binding signal?
0.243

Fill blank: measured binding signal of the sequence CGATATAG is ____.
0.362

I would be grateful if you could share the reported binding signal for GACACCCA .
0.396

Reported binding signal, sequence GGATACAC : ____
0.405

What measured binding signal goes with ACTAGTAT ?
0.249

Entry CCAACACC : reported binding signal = ?
0.291

Please report the recorded binding signal for GGATACAA .
0.354

Can you look up the measured binding signal of TAATACTA for me?
0.276

Fill blank: measured binding signal of the sequence ATCATGAG is ____.
0.23

Item under review: AACACCCC . Reported binding signal?
0.268

Quick check: binding signal of CGGTGATA ?
0.409

###

Study target: SIX1 homeodomain (reference allele) (human, UniProt Q15475 108-198)
Sequence: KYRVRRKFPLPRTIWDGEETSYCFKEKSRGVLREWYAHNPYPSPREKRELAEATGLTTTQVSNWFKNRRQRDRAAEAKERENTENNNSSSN
Method: universal protein binding microarray; Universal all-10-mer PBM (8x60K, AMADID 030236), 300 nM GST-tagged protein, Alexa Fluor 488 anti-GST; buffer, salt, pH and temperature not stated (as in Berger); high values mean tight binding
Settings: protein: ivt; tags: N-terminal GST; dsDNA, one strand shown
Whole data set: some 33,000 sequences, median “e-score” near -0.053, cut for the highest 2% near 0.38. For the sample, the highest values were picked, then their nearest neighbours and some sequences at random.
So I've got a bunch of sequences here, and I need their binding signal values.

I am curious: what binding signal value has been reported for CCAGATTA ?
0.252 E-score

GET /values?readout=binding signal&item= ACATATAG
0.162 E-score

For CCATATGC , what is its reported binding signal?
0.159 E-score

Which binding signal reading was recorded for the sequence ACATATAC ?
0.244 E-score

Fill blank: measured binding signal of the sequence CCCGATCC is ____.
0.366 E-score

# get_value(readout='binding signal', item= CCCGACAC )
0.19 E-score

Suppose we examine the sequence CCATATAG ; what binding signal value has been reported?
0.211 E-score

Look at this sequence and give its reported binding signal. ACCGACAC
0.286 E-score

# query: binding signal of entry AAACGTAT
0.262 E-score
